These measurements were taken from patent US20210230570.

Entries and their KM of FX activation by FIXa in the Xase complex (FVIIIa, PC/PS vesicles, Ca2+) values follow.
- tgt: Factor X (FX), P00742
- Sequence (P00742 whole entry, looked up): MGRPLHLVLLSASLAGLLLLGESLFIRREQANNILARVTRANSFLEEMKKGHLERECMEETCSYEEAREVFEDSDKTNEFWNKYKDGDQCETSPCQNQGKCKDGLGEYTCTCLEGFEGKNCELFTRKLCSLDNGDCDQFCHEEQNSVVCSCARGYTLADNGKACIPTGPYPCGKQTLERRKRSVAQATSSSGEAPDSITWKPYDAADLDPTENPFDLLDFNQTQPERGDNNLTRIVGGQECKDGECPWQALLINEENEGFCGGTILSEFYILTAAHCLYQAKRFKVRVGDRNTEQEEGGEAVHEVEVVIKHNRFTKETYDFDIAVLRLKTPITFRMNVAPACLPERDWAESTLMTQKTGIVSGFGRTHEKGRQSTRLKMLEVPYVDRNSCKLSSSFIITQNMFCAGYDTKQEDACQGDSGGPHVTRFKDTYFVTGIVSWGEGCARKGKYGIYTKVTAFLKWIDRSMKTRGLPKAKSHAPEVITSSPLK
Number in µM, nothing else.

KM of FX activation by FIXa in the Xase complex (FVIIIa, PC/PS vesicles, Ca2+) recorded for this protein, FIXa variant K228N/R338E/R403E (mature FIX numbering) (protein) chain 1: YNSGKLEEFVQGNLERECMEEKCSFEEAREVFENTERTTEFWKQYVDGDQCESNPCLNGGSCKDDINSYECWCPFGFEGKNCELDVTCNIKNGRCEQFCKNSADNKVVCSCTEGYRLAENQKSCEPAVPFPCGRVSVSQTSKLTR chain 2: VVGGEDAKPGQFPWQVVLNGKVDAFCGGSIVNEKWIVTAAHCVETGVNITVVAGEHNIEETEHTEQKRNVIRIIPHHNYNAAINKYNHDIALLELDEPLVLNSYVTPICIADKEYTNIFLKFGSGYVSGWGRVFHKGRSALVLQYLRVPLVDRATCLESTKFTIYNNMFCAGFHEGGRDSCQGDSGGPHVTEVEGTSFLTGIISWGEECAMKGKYGIYTKVSEYVNWIKEKTKLT , is 0.0592

KM of FX activation by FIXa in the Xase complex (FVIIIa, PC/PS vesicles, Ca2+) recorded for this protein, FIXa variant A103N/N105S/Y155F/R318Y/R338E/R403E/E410N (mature FIX numbering) (protein) chain 1: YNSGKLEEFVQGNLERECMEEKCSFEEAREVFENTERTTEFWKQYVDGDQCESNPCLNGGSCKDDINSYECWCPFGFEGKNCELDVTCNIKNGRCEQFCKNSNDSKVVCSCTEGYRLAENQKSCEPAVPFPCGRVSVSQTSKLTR chain 2: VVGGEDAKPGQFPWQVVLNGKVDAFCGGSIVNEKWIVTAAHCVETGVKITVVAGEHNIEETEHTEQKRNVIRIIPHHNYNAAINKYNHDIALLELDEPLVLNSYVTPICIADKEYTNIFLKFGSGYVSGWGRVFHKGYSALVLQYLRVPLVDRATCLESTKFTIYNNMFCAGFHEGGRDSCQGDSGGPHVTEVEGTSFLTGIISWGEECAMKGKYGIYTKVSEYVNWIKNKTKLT , is 0.0507

KM of FX activation by FIXa in the Xase complex (FVIIIa, PC/PS vesicles, Ca2+) recorded for this protein, FIXa variant D203N/F205T/R318Y (mature FIX numbering) (protein) chain 1: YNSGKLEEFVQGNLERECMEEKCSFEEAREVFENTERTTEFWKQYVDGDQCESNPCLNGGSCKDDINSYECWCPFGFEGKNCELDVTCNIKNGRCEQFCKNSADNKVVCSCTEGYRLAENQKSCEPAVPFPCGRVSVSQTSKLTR chain 2: VVGGEDAKPGQFPWQVVLNGKVNATCGGSIVNEKWIVTAAHCVETGVKITVVAGEHNIEETEHTEQKRNVIRIIPHHNYNAAINKYNHDIALLELDEPLVLNSYVTPICIADKEYTNIFLKFGSGYVSGWGRVFHKGYSALVLQYLRVPLVDRATCLRSTKFTIYNNMFCAGFHEGGRDSCQGDSGGPHVTEVEGTSFLTGIISWGEECAMKGKYGIYTKVSRYVNWIKEKTKLT , is 0.0475

---
KM of FX activation by FIXa in the Xase complex (FVIIIa, PC/PS vesicles, Ca2+) recorded for this protein, FIXa variant Y155F/R318Y/R338E/E410N (mature FIX numbering) (protein) chain 1: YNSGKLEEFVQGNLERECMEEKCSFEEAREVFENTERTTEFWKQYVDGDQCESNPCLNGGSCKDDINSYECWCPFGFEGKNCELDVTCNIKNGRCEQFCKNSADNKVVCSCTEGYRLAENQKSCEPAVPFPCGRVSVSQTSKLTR chain 2: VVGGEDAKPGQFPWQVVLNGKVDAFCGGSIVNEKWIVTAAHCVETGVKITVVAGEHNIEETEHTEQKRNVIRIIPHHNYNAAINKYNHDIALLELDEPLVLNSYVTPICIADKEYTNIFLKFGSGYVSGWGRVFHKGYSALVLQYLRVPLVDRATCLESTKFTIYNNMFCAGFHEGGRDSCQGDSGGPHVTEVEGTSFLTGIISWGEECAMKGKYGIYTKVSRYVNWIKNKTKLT , is 0.016
